- TARGET UNDER TEST: Myosin light chain kinase, smooth muscle (Homo sapiens) (UniProt Q15746)
- Sequence (Q15746 whole entry): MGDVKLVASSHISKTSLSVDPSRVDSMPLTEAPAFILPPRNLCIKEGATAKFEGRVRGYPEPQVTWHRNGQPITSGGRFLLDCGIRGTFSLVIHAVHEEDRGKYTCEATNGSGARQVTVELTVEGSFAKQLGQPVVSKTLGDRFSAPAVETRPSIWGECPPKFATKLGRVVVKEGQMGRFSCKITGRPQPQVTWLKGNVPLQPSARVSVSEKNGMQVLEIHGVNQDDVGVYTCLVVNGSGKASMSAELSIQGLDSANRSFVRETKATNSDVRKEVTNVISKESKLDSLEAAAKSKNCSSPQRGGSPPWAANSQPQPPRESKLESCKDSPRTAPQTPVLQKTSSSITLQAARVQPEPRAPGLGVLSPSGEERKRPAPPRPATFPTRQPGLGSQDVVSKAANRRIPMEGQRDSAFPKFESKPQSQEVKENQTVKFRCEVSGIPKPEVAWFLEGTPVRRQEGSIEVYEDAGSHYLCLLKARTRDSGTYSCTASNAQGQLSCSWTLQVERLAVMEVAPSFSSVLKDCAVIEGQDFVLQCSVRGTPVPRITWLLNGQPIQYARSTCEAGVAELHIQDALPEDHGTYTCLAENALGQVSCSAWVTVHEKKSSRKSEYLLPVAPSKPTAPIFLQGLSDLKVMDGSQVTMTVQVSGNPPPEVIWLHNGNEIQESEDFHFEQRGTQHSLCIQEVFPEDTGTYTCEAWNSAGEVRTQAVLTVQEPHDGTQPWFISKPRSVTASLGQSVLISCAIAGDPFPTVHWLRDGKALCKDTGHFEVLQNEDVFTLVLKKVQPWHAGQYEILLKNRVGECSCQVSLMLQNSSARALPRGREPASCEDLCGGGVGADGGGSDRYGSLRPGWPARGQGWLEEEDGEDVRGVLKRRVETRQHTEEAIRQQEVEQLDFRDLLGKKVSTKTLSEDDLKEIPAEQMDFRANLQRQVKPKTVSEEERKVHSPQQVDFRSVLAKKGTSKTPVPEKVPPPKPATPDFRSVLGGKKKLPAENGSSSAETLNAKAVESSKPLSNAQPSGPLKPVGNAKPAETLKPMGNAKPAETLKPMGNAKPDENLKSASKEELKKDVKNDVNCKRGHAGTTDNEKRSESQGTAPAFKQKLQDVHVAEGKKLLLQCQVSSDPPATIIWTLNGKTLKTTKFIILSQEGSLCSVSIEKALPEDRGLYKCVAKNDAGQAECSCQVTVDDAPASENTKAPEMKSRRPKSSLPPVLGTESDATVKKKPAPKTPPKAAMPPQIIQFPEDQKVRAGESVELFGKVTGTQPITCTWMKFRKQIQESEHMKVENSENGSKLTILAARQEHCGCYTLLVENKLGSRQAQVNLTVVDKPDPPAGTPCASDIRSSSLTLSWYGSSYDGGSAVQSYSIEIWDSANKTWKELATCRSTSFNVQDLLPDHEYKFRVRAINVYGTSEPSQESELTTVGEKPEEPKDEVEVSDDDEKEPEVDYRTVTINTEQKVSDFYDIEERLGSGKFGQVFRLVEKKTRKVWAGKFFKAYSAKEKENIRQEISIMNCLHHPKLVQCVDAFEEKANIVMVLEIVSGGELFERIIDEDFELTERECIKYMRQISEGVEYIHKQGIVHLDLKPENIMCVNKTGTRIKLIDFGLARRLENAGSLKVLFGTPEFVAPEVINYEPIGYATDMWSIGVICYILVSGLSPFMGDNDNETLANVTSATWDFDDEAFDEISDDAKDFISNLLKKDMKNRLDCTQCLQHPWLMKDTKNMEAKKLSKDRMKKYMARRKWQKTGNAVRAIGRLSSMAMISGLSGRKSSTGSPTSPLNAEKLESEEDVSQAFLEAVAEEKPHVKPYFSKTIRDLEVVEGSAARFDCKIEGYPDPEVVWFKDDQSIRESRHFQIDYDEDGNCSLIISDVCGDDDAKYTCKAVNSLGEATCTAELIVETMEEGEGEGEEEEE
- RECORDED CONDITIONS: at 10 µM
Outcome label depends on residual activity relative to 70%: at/above gives Yes, below gives No.

GIVEN SMILES: COc1cc2nccc(Oc3ccc(NC(=O)Nc4cc(C)on4)c(Cl)c3)c2cc1OC
TARGET UNDER TEST: Myosin light chain kinase, smooth muscle (Homo sapiens) (UniProt Q15746)
LABEL CLASS: No
//
GIVEN SMILES: CN(C)S(=O)(=O)c1ccc2c(c1)/C(=C/c1cc3c([nH]1)CCCC3)C(=O)N2
TARGET UNDER TEST: Myosin light chain kinase, smooth muscle (Homo sapiens) (UniProt Q15746)
LABEL CLASS: Yes
//
GIVEN SMILES: Nc1ncnc2c1c(-c1ccc(Oc3ccccc3)cc1)cn2C1CCCC1
TARGET UNDER TEST: Myosin light chain kinase, smooth muscle (Homo sapiens) (UniProt Q15746)
LABEL CLASS: No
//
GIVEN SMILES: CCCC(=O)Oc1ccc2[nH]c(C(=O)c3cc4ccccc4[nH]3)cc2c1
TARGET UNDER TEST: Myosin light chain kinase, smooth muscle (Homo sapiens) (UniProt Q15746)
LABEL CLASS: Yes
//
GIVEN SMILES: O=C1NC(=O)C(c2c[nH]c3ccccc23)=C1c1c[nH]c2ccccc12
TARGET UNDER TEST: Myosin light chain kinase, smooth muscle (Homo sapiens) (UniProt Q15746)
LABEL CLASS: No
//
GIVEN SMILES: O=C1Nc2ccc(Cl)cc2/C1=C/c1cc(Cl)c(O)c(Cl)c1
TARGET UNDER TEST: Myosin light chain kinase, smooth muscle (Homo sapiens) (UniProt Q15746)
LABEL CLASS: No
//
GIVEN SMILES: COc1cc2c(cc1OC)-c1n[nH]c(Nc3cccc(F)c3)c1C2
TARGET UNDER TEST: Myosin light chain kinase, smooth muscle (Homo sapiens) (UniProt Q15746)
LABEL CLASS: No
//
GIVEN SMILES: Nc1nc(Nc2ccc(S(N)(=O)=O)cc2)nn1C(=O)c1c(F)cccc1F
TARGET UNDER TEST: Myosin light chain kinase, smooth muscle (Homo sapiens) (UniProt Q15746)
LABEL CLASS: No
//
GIVEN SMILES: O=C(Nc1nc2ccccc2n1CCN1CCOCC1)c1cccc([N+](=O)[O-])c1
TARGET UNDER TEST: Myosin light chain kinase, smooth muscle (Homo sapiens) (UniProt Q15746)
LABEL CLASS: Yes
